Protocol summary: CCTE_Harrill_HTTr_Apoptosis_DMEM_12hr: (Pilot) CCTE's 12-hour Apoptosis Assessment for the High-Throughput Transcriptomics (HTTr) Platform, in MCF-7 cells cultured in DMEM + 10% fetal bovine serum, Harrill Lab (AID 2283982)
The source made the active and inactive calls. How the source made its calls: active means hit-call score of the fitted dose curve at least 0.9, where 1 is the maximum; inactive means score below 0.9.
API: response.call in True = active, False = inactive

Solved entries (count: 4):
CC(=O)O[C@]1(C(C)=O)CC[C@H]2[C@@H]3C=C(Cl)C4=CC(=O)[C@@H]5C[C@@H]5[C@]4(C)[C@H]3CC[C@@]21C ... False
CCN(CC)CCOc1ccc(C(=C(Cl)c2ccccc2)c2ccccc2)cc1 ... True
Cc1c(C)c2c(c(C)c1O)CCC(C)(COc1ccc(CC3SC(=O)NC3=O)cc1)O2 (stereo not given) ... False
Nc1nc(Cl)nc2c1ncn2[C@H]1C[C@H](O)[C@@H](CO)O1 ... False

Please look at the following molecule next.
Which outcome was entered for the molecule CC(C)OC(=O)C(C)(C)Oc1ccc(C(=O)c2ccc(Cl)cc2)cc1 in this test? False

###

Target system: Aryl hydrocarbon receptor (Homo sapiens) (UniProt P35869)
Sequence (P35869 whole entry, looked up): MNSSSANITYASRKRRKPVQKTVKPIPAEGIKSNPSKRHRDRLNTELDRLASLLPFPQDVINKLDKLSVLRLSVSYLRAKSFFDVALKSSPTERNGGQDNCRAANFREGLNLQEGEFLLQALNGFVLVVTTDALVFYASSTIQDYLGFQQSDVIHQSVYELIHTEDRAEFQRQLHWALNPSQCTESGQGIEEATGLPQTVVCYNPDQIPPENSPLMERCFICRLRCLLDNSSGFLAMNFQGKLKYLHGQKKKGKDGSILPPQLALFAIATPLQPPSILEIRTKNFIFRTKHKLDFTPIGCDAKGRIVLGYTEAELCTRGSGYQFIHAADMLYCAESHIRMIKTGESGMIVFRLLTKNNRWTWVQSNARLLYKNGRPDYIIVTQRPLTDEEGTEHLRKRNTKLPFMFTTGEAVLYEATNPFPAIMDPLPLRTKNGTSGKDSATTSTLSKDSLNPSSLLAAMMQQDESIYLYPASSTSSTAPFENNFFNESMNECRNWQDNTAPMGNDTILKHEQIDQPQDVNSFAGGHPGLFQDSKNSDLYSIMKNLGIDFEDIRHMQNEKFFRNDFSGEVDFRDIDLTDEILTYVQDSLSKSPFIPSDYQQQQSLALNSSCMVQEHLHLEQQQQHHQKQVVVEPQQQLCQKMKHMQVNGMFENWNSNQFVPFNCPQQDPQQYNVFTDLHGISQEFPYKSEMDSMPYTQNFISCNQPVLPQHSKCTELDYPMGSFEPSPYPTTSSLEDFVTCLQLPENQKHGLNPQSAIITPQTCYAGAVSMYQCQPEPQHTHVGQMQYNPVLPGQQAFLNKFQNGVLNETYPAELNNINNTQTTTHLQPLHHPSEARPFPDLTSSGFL
Protocol summary: ATG_Ahr_CIS: Attagene CIS-FACTORIAL HepG2 Assay for human Aryl Hydrocarbon Receptor (Ahr) (AID 2282930)
Condition summary: HepG2 AhR cis-factorial reporter transcription; actives raise or lower the signal
The source made the active and inactive calls. Rule for the calls: active = hit-call score of the fitted dose curve at least 0.9, where 1 is the maximum; inactive = score below 0.9.
API: response.call in active, inactive

Cn1cnc2c1c(=O)[nH]c(=O)n2C ... inactive

Which outcome was entered for the compound CS(=O)(=O)c1ccc([C@@H](C[C@H]2CCC(=O)C2)C(=O)Nc2cnccn2)cc1Cl in this test? inactive

Which outcome was entered for the compound O=C(Oc1ccccc1)c1cccc(C(=O)Oc2ccccc2)c1 in this test? inactive

Which outcome was entered for the compound Cc1occc(=O)c1O in this test? inactive

Which outcome was entered for the compound CC1=C(C)S(=O)(=O)CCS1(=O)=O in this test? inactive

Which outcome was entered for the compound C=CCCCCCCCCCCCC in this test? inactive

Which outcome was entered for the compound CSc1ccc(Oc2ccc(S(N)(=O)=O)cc2CN(C)C)cc1C in this test? inactive

Which outcome was entered for the compound C=CCc1ccc(OC)c(OC)c1 in this test? inactive

Which outcome was entered for the compound Cc1ccc(-c2cc(C(F)(F)F)nn2-c2ccc(S(N)(=O)=O)cc2)cc1 in this test? inactive

Which outcome was entered for the compound CC(C)NCC(O)c1ccc(O)c(O)c1 (stereo not given) in this test? active

###

Protocol summary: ATG_TAL_CIS: Attagene CIS-FACTORIAL HepG2 Assay for human TAL Basal Promoter (AID 2282966);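 further: background control endpoint measuring basal TAL promoter reporter mRNA not a specific factor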
Condition summary: HepG2 Attagene cis-factorial TAL promoter reporter; actives raise or lower the signal
Active and inactive are the calls of the source. How the source made its calls: active means hit-call score of the fitted dose curve at least 0.9, where 1 is the maximum; inactive means score below 0.9.
API: response.call in active, inactive

CCCCCCCCCC[N+](C)(C)[O-] ... inactive
CC(COCC(C)OC(=O)c1ccccc1)OC(=O)c1ccccc1 (stereo not drawn) ... inactive
C/C=C/C=C/C(=O)O ... inactive
Cc1occc(=O)c1O ... inactive
COC(=O)CCCC(=O)OC ... inactive
NC=O ... inactive
O=C1O[C@H]([C@H](O)CO)C(O)=C1O ... inactive
Cc1cc(Cc2ccc(N)c(C)c2)ccc1N ... inactive

Which outcome was entered for the compound O=C1OC(c2ccc(O)cc2)(c2ccc(O)cc2)c2ccccc21 in this test? active

Which outcome was entered for the compound CS(=O)(=O)c1ccc([C@@H](C[C@H]2CCC(=O)C2)C(=O)Nc2cnccn2)cc1Cl in this test? inactive

Which outcome was entered for the compound CC(C)(O)c1ccc(CNC(=O)c2cccnc2Oc2ccc(F)cc2)cc1 in this test? inactive

Which outcome was entered for the compound CSc1ccc(Oc2ccc(S(N)(=O)=O)cc2CN(C)C)cc1C in this test? inactive

Which outcome was entered for the compound Cc1cc(SC2=C(O)C[C@@](CCc3ccc(N)cc3)(C(C)C)OC2=O)c(C(C)(C)C)cc1CO in this test? inactive
